target: Adenosine receptor A1 (Mus musculus); test: Displacement of [125I]N6-(4-amino-3-iodobenzyl)adenosine-5'-N-methyl-uronamide from mouse recombinant adenosine A1 receptor expressed in HEK293 cells
Sequence (Q60612 whole entry): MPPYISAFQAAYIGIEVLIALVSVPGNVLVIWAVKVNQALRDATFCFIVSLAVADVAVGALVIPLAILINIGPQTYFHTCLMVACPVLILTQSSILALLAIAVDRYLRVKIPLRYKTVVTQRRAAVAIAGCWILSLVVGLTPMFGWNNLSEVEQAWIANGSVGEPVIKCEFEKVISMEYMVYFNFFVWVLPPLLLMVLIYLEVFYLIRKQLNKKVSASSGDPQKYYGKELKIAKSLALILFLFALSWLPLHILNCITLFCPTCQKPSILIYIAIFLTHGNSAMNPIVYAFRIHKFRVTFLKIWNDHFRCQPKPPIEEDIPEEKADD
pKi: −log10 of the molar value.
The compounds listed here are annotated with their pKi.

compound: CNC(=O)[C@H]1O[C@@H](n2cnc3c(NCc4cccc(I)c4)ncnc32)[C@H](O)[C@@H]1O
pKi: 8.23
//
compound: CNC(=O)[C@@]12C[C@@H]1[C@@H](n1cnc3c(NCc4cccc(Cl)c4)nc(C#CCCCC(=O)OC)nc31)[C@H](O)[C@@H]2O
pKi: 5.87
//
compound: CNC(=O)[C@@]12C[C@@H]1[C@@H](n1cnc3c(NCc4cccc(Cl)c4)nc(Cl)nc31)[C@H](O)[C@@H]2O
pKi: 7.82
//
compound: CNC(=O)[C@@]12C[C@@H]1[C@@H](n1cnc3c(NCc4cccc(Cl)c4)nc(C#CCCCC(=O)NCCN)nc31)[C@H](O)[C@@H]2O
pKi: 6.26
//
compound: CNC(=O)[C@@]12C[C@@H]1[C@@H](n1cnc3c(NCc4cccc(Cl)c4)nc(C#C[Si](C)(C)C)nc31)[C@H](O)[C@@H]2O
pKi: 6.80
//
compound: CNC(=O)[C@@]12C[C@@H]1[C@@H](n1cnc3c(NCc4cccc(I)c4)nc(Cl)nc31)[C@H](O)[C@@H]2O
pKi: 8.14
//
compound: CNC(=O)[C@H]1O[C@@H](n2cnc3c(NCc4cccc(I)c4)nc(Cl)nc32)[C@H](O)[C@@H]1O
pKi: 7.46
//
compound: CNC(=O)[C@@]12C[C@@H]1[C@@H](n1cnc3c(NC)nc(Cl)nc31)[C@H](O)[C@@H]2O
pKi: 7.26
//
compound: CNC(=O)C12C[C@@H]1[C@@H](n1cnc3c(NCc4cc(OC)ccc4OC)nc(Cl)nc31)[C@H](O)[C@@H]2O (single isomer, unassigned)
pKi: 7.54
//
compound: CNC(=O)[C@@]12C[C@@H]1[C@@H](n1cnc3c(NCc4cccc(C#CCCCC(=O)NCCN)c4)nc(Cl)nc31)[C@H](O)[C@@H]2O
pKi: 6.82
//
compound: CNC(=O)C12C[C@@H]1[C@@H](n1cnc3c(NCc4cccc(Br)c4)nc(Cl)nc31)[C@H](O)[C@@H]2O (single isomer, unassigned)
pKi: 8.06
//
compound: CNC(=O)[C@@]12C[C@@H]1[C@@H](n1cnc3c(NOC)nc(Cl)nc31)[C@H](O)[C@@H]2O
pKi: 5.94
//
compound: CNC(=O)C12C[C@@H]1[C@@H](n1cnc3c(NCC(c4ccccc4)c4ccccc4)nc(Cl)nc31)[C@H](O)[C@@H]2O (single isomer, unassigned)
pKi: 8.17
//
compound: CNC(=O)C12C[C@@H]1[C@@H](n1cnc3c(NCc4cccc(Cl)c4)nc(SC)nc31)[C@H](O)[C@@H]2O (single isomer, unassigned)
pKi: 7.00
